// values below are reported pIC50
System: AP-1060 (ETV6-NTRK3)
Test: Cell viability assay
Settings: read-out: IC50 in cell proliferation assay
pIC50: −log10 of the molar value.

{"columns": ["smiles_entry", "recorded_measurement"],
 "data": [
  ["FC(F)(F)c1ccc(CNc2ccc(Cc3c[nH]c4ncc(Cl)cc34)cn2)cn1", "< 4.50"]
]}

Prompt: Given CNC(=O)c1ccc(-c2cnc3ncc(Cc4ccc5ncccc5c4)n3n2)cc1F , state its recorded pIC50.
Response: < 4.50

Prompt: What do you get for CC#CC(=O)N1CCC[C@H]1c1nc(-c2ccc(C(=O)Nc3ccccn3)cc2)c2c(N)nccn12 ?
Response: < 4.50
